tested on: NCI-H322M; assay: relative viability (nuclei count vs DMSO), 5 days (fraction); higher = more cells survive; details: first compound 50 µM
Lab note - cut at 0.9 for relative viability: yes if strictly below, no if not.

{"columns": ["COMPOUND", "SYSTEM", "CLASS NAME"],
 "data": [
  ["O=C(O)CCCCC(CCSCc1ccccc1)SCc1ccccc1 (stereo not given) [CPI-613] + C[C@@H](Oc1cc(-c2cnn(C3CCNCC3)c2)cnc1N)c1c(Cl)ccc(F)c1Cl [Crizotinib] (partner 1 µM)", "NCI-H322M", "no"],
  ["O=C(O)CCCCC(CCSCc1ccccc1)SCc1ccccc1 (stereo not given) [CPI-613] + C[C@]1(O)C[C@@H](c2nc(-c3ccc4ccc(-c5ccccc5)nc4c3)c3c(N)nccn32)C1 [Linsitinib] (partner 1 µM)", "NCI-H322M", "no"],
  ["O=C(O)CCCCC(CCSCc1ccccc1)SCc1ccccc1 (stereo not given) [CPI-613] + CS(=O)(=O)N1CCN(Cc2cc3nc(-c4cccc5[nH]ncc45)nc(N4CCOCC4)c3s2)CC1 [Pictilisib] (partner 1 µM)", "NCI-H322M", "yes"],
  ["O=C(O)CCCCC(CCSCc1ccccc1)SCc1ccccc1 (stereo not given) [CPI-613] + CC(=O)Nc1cccc(-n2c(=O)n(C3CC3)c(=O)c3c(Nc4ccc(I)cc4F)n(C)c(=O)c(C)c32)c1 [Trametinib] (partner 0.02 µM)", "NCI-H322M", "yes"]
]}

Field: next compound
In: I wonder whether O=C(O)CCCCC(CCSCc1ccccc1)SCc1ccccc1 (stereo not given) [CPI-613] + CCNC(=O)c1noc(-c2cc(C(C)C)c(O)cc2O)c1-c1ccc(CN2CCOCC2)cc1 [Luminespib] (partner 0.01 µM) has relative viability below 0.9. Can you tell?
Out: yes

The reported numbers originate from the supplement of paper PMC10307832.
